Listed binders paired with reported SPR binding level
Tgt: T1, AFP158/HLA-A*02:01 complex (human)
T1 construct: flowed over the chip as analyte; also called AFP158 peptide/HLA-A*02:01 complex
Assay details: SPR (BIAcore T200), crude scFv captured, complex flowed over

- Binder: "43-AS170036 VL1VH1-56Y98I108A (scFv, Crude scFv mutein of AS170036 VL1VH1) scFv: QSALTQPRSVSGSPGQSVTISCAGTSSDVGSENYVSWYQQHPGKAPKLMIYQVNKRASGVPDRFSGSKSGNTASLTISGLQAEDEADYYCASYRSSDINIVFGGGTKLTVLGGGGSGGGGSGGGGSEVQLVESGGGLVQPGGSLRLSCAASGFTFSSYAMSWVRQAPGKGLEWVSTINSGTYSPYYADSVKGRFTISRDNSKNTLYLQMNSLRAEDTAVYYCAKNFFDGSWFLAPPAMDYWGQGTLVTVSSHHHHHH"
  SPR binding level [RU]: 664
- Binder: "70-AS170036 VL1VH1-57K98I108A (scFv, Crude scFv mutein of AS170036 VL1VH1) scFv: QSALTQPRSVSGSPGQSVTISCAGTSSDVGSENYVSWYQQHPGKAPKLMIYQVNKRASGVPDRFSGSKSGNTASLTISGLQAEDEADYYCASYRSSDINIVFGGGTKLTVLGGGGSGGGGSGGGGSEVQLVESGGGLVQPGGSLRLSCAASGFTFSSYAMSWVRQAPGKGLEWVSTINSGTGKPYYADSVKGRFTISRDNSKNTLYLQMNSLRAEDTAVYYCAKNFFDGSWFLAPPAMDYWGQGTLVTVSSHHHHHH"
  SPR binding level [RU]: 807
- Binder: "22-AS170036 VL1VH1-57H108A (scFv, Crude scFv mutein of AS170036 VL1VH1) scFv: QSALTQPRSVSGSPGQSVTISCAGTSSDVGSENYVSWYQQHPGKAPKLMIYQVNKRASGVPDRFSGSKSGNTASLTISGLQAEDEADYYCASYRSSDHNIVFGGGTKLTVLGGGGSGGGGSGGGGSEVQLVESGGGLVQPGGSLRLSCAASGFTFSSYAMSWVRQAPGKGLEWVSTINSGTGHPYYADSVKGRFTISRDNSKNTLYLQMNSLRAEDTAVYYCAKNFFDGSWFLAPPAMDYWGQGTLVTVSSHHHHHH"
  SPR binding level [RU]: 571
